Each recorded value in this set is attributed to patent US8133978.

- ASSAY_TARGET: T1, Human interleukin-18 (recombinant human IL-18) (human, UniProt Q14116 37-193)
- T1 construct: also called hIL-18
- T1 sequence: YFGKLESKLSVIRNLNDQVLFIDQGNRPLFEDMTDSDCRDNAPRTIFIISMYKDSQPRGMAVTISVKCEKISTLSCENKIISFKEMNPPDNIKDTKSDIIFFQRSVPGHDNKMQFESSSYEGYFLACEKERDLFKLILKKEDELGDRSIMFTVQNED
- ASSAY_TEXT: ELISA, antibody on plate, human IL-18 captured, detected by 16D10; room temperature, blocking buffer
PARAMETER_MEASURED: EC50 (ng/mL)
Report as a plain number; the unit ng/mL is understood.

2C10 rat-human chimera (chimaeric antibody 2C10c) (antibody, V domains shown, Rat 2C10 V regions joined to human IgG1 and kappa C regions; also called Chimera 2C10; 2C10 Chimera) VH: EVQLQQSGAELVRPGTSVKLSCKVSGEISTGYYFHFVRRRPGQGLEWIGRIDPEDDSTKYAERFKDRATLTAQTSSNTAYLNLSSLTSEDTATYFCTTWRIYRDSSGRPFYVMDAWGQGTLVTVSS VL: DIQMTQSPASLSASLGETVSIECLASEDIYTYLTWYQQKPGKSPQLLIYGANKLQDGVPSRFSGSGSGTQYSLKISGIQPEDEGDYFCLQGSKFPLTFGSGTKLEIKR    3.81

Problem: Read off the recorded EC50 for H1L2 humanised anti-IL-18 antibody (antibody, human IgG1, kappa, V domains shown, Human IgG1 / kappa) VH: QVQLVQSGAEVKKPGASVKVSCKVSGEISTGYYFHWVRQAPGKGLEWMGRIDPEDDSTKYAERFKDRVTMTEDTSTDTAYMELSSLRSEDTAVYYCTTWRIYRDSSGRPFYVMDAWGQGTLVTVSS VL: DIQMTQSPSSVSASVGDRVTITCLASEDIYTYLTWYQQKPGKAPKLLIYGANKLQDGVPSRFSGSGSGTDYTLTISSLQPEDFATYYCLQGSKFPLTFGQGTKLEIKR
Result: 3.55

Problem: Read off the recorded EC50 for H1L3 humanised anti-IL-18 antibody (antibody, human IgG1, kappa, V domains shown, Human IgG1 / kappa) VH: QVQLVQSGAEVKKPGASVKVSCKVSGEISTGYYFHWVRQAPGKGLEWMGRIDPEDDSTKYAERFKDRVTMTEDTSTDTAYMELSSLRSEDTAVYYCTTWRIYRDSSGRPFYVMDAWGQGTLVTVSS VL: DIQMTQSPSSVSASVGDRVTITCLASEDIYTYLTWYQQKPGKAPQLLIYGANKLQDGVPSRFSGSGSGTDYTLTISSLQPEDEGDYYCLQGSKFPLTFGQGTKLEIKR
Result: 3.79

Problem: Read off the recorded EC50 for H1L1 humanised anti-IL-18 antibody (antibody, human IgG1, kappa, V domains shown, Human IgG1 / kappa) VH: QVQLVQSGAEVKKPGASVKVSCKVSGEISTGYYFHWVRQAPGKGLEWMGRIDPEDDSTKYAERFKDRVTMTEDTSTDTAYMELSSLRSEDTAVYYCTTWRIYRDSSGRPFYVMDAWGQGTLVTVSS VL: DIQMTQSPSSVSASVGDRVTITCLASEDIYTYLTWYQQKPGKAPKLLIYGANKLQDGVPSRFSGSGSGTDFTLTISSLQPEDFATYYCLQGSKFPLTFGQGTKLEIKR
Result: 3.31
